test: Toxicity in ip dosed mouse; type: organism-based; conditions: in vivo

compound | LD50
CC[C@H](C)[C@@H]1NC(=O)CNC(=O)[C@@H]2Cc3c([nH]c4cc(O)ccc34)[S+]([O-])C[C@H](NC(=O)CNC1=O)C(=O)N[C@@H](CC(N)=O)C(=O)N1C[C@H](O)C[C@H]1C(=O)N[C@@H]([C@@H](C)[C@@H](O)CO)C(=O)N2 (stereo partly drawn) | 0.2 to 0.5 mg/kg
CC[C@H](C)[C@@H]1NC(=O)CNC(=O)[C@@H]2Cc3c([nH]c4cc(O)ccc34)[S+]([O-])C[C@H](NC(=O)CNC1=O)C(=O)N[C@@H](CC(N)=O)C(=O)N1C[C@H](O)C[C@H]1C(=O)N[C@@H]([C@@H](C)[C@H](C)O)C(=O)N2 (stereo partly drawn) | 0.2 to 0.5 mg/kg
CC[C@H](C)[C@@H]1NC(=O)CNC(=O)[C@@H]2Cc3c([nH]c4cc(O)ccc34)[S+]([O-])C[C@H](NC(=O)CNC1=O)C(=O)N[C@@H](CC(=O)O)C(=O)N1C[C@H](O)C[C@H]1C(=O)N[C@@H]([C@@H](C)[C@@H](O)CO)C(=O)N2 (stereo partly drawn) | 0.2 to 0.5 mg/kg

---

test: Therapeutic Index, ratio of CC50 for human C8166 cells to EC50 for HIV1 3B infected in human C8166 cells; format: toxicity, cell-based; conditions: HIV-1 3B infected C8166 cells, read-out: Ratio CC50/EC50

compound | selectivity ratio
O=C(O)c1cc2c([nH]c3ccccc32)c(-c2ccc(CO)o2)n1 [FLAZINE] | 12.1
